- System: K12877-001-R-J1-PDC complex spheroid viability;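 further: tumour cells co-cultured with HUVEC and mesenchymal stem cells in spheroids; spheroids exposed to agents for one week before readout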
- assay.notes: Anticancer human tumor K12877-001-R-J1-PDC patient-derived lung adenocarcinoma cell line growth inhibition [RAS]
- conditions.used: second compound 0.3 µM; first compound 0.0316 µM; hits give low values
test.readout: viability, T/C (%)
Expressed in %, but write only the number.

Recorded results for 7 molecules are shown here.
molecule	target.desc	reading.unit	viability, T/C
C[C@@H](NC(=O)c1ncnc(N)c1Cl)c1ncc(C(=O)Nc2cc(C(F)(F)F)c(Cl)cn2)s1 + CCn1c(-c2cc(N3CCN(C)CC3)cnc2C(C)OC)c2c3cc(ccc31)-c1csc(n1)CC(NC(=O)C1CC1C)C(=O)N1CCCC(N1)C(=O)OCC(C)(C)C2	K12877-001-R-J1-PDC complex spheroid viability	%	100
CCC(CC)c1cc(NC2CCC(N)C2)n2nccc2n1 (stereo not drawn) + CCn1c(-c2cc(N3CCN(C)CC3)cnc2C(C)OC)c2c3cc(ccc31)-c1csc(n1)CC(NC(=O)C1CC1C)C(=O)N1CCCC(N1)C(=O)OCC(C)(C)C2	K12877-001-R-J1-PDC complex spheroid viability	%	94.6
O=C(c1ccc(F)c(F)c1Nc1ccc(I)cc1F)N1CC(O)([C@@H]2CCCCN2)C1 + CCn1c(-c2cccnc2C(C)OC)c2c3cc(ccc31)N1CCOC(CC(NC(=O)C(C(C)C)N(C)C(=O)C3(F)CCN(C(=O)C#CC(C)(C)N(C)C)CC3)C(=O)N3CCCC(N3)C(=O)OCC(C)(C)C2)C1	K12877-001-R-J1-PDC complex spheroid viability	%	52.1
C[C@@H](NC(=O)c1ncnc(N)c1Cl)c1ncc(C(=O)Nc2cc(C(F)(F)F)c(Cl)cn2)s1 + CCn1c(-c2cccnc2C(C)OC)c2c3cc(ccc31)N1CCOC(CC(NC(=O)C(C(C)C)N(C)C(=O)C3(F)CCN(C(=O)C#CC(C)(C)N(C)C)CC3)C(=O)N3CCCC(N3)C(=O)OCC(C)(C)C2)C1	K12877-001-R-J1-PDC complex spheroid viability	%	72
CC(=O)OC12COC1CC(O)C1(C)C(=O)C(O)C3=C(C)C(OC(=O)C(O)C(NC(=O)OC(C)(C)C)c4ccccc4)CC(O)(C(OC(=O)c4ccccc4)C21)C3(C)C (stereo not drawn) + CCn1c(-c2cccnc2C(C)OC)c2c3cc(ccc31)N1CCOC(CC(NC(=O)C(C(C)C)N(C)C(=O)C3(F)CCN(C(=O)C#CC(C)(C)N(C)C)CC3)C(=O)N3CCCC(N3)C(=O)OCC(C)(C)C2)C1	K12877-001-R-J1-PDC complex spheroid viability	%	3.02
C=CC(=O)Nc1cc(Nc2nccc(-c3cn(C)c4ccccc34)n2)c(OC)cc1N(C)CCN(C)C + CCn1c(-c2cc(N3CCN(C)CC3)cnc2C(C)OC)c2c3cc(ccc31)-c1csc(n1)CC(NC(=O)C1CC1C)C(=O)N1CCCC(N1)C(=O)OCC(C)(C)C2	K12877-001-R-J1-PDC complex spheroid viability	%	93
CCN1CCN(Cc2ccc(Nc3ncc(F)c(-c4cc(F)c5nc(C)n(C(C)C)c5c4)n3)nc2)CC1 + CCn1c(-c2cc(N3CCN(C)CC3)cnc2C(C)OC)c2c3cc(ccc31)-c1csc(n1)CC(NC(=O)C1CC1C)C(=O)N1CCCC(N1)C(=O)OCC(C)(C)C2	K12877-001-R-J1-PDC complex spheroid viability	%	86.5

Now, please, on to the next molecule.
**Q:** Tell me the measured viability, T/C of CC(C)n1nc(-c2ccc3oc(N)nc3c2)c2c(N)ncnc21 + CCn1c(-c2cc(N3CCN(C)CC3)cnc2C(C)OC)c2c3cc(ccc31)-c1csc(n1)CC(NC(=O)C1CC1C)C(=O)N1CCCC(N1)C(=O)OCC(C)(C)C2 , please.
**A:** 19.3
